experiment: Acute toxicity, lethal dose 50; settings: mouse, in vivo, po, read-out: Lethal dose 50 (mouse) / DL 50 (mouse) (converted)
Examples of compounds with documented log10 of LD50 follow.
Field: value | Transform: log10 | Quantity: LD50 | Unit: mg/kg

[ask] Value lookup for log10 of LD50; key = CC(C)NC(=O)CN1CCN(Cc2nc3ccccc3n2CCC(=O)c2ccc(Cl)cc2)CC1 [75 0012]
[reply] 3.11

[ask] Could you tell me which log10 of LD50 is on file for CC(C)NC(=O)CN1CCN(Cc2nc3ccccc3n2CCC(=O)c2ccc([N+](=O)[O-])cc2)CC1 [74 0747] ?
[reply] 3.34

[ask] Could you tell me which log10 of LD50 is on file for CC(C)CNC(=O)CN1CCN(Cc2nc3ccccc3n2CCC(=O)c2ccccc2)CC1 [74 0187] ?
[reply] 3.20

[ask] Please look up its log10 of LD50: CNC(=O)CN1CCN(Cc2nc3ccccc3n2CCC(=O)c2ccccc2)CC1 [74 0145]
[reply] 2.26

[ask] Entry under review: CCN(CC)C(=O)CN1CCN(Cc2nc3ccccc3n2CCC(=O)c2ccccc2)CC1 [74 0184] . Reported log10 of LD50?
[reply] 3.11

[ask] What log10 of LD50 value was documented for this compound, CC(C)NC(=O)CN1CCN(Cc2nc3ccccc3n2CCC(=O)c2ccccc2)CC1 [73 0442] ?
[reply] 2.90

[ask] Need log10 of LD50, item CCCNC(=O)CN1CCN(Cc2nc3ccccc3n2CCC(=O)c2ccccc2)CC1 [74 0159]
[reply] 3.10

[ask] Suppose we examine the compound O=C(CN1CCN(Cc2nc3ccccc3n2CCC(=O)c2ccccc2)CC1)NC1CCCC1 [74 0751] ; what log10 of LD50 value has been reported?
[reply] 3.04

[ask] What measured log10 of LD50 goes with C[N+]1(C)CCC(=C(c2ccccc2)c2ccccc2)CC1 [Diphemanil, diphemanil (methylsulfate), reference compound] ?
[reply] 2.50

[ask] Requested field: log10 of LD50. Item: NC(=O)CN1CCN(Cc2nc3ccccc3n2CCC(=O)c2ccccc2)CC1 [75 0102]
[reply] 3.11

[ask] Which log10 of LD50 reading was recorded for the compound CCCCNC(=O)CN1CCN(Cc2nc3ccccc3n2CCC(=O)c2ccccc2)CC1 [74 0186] ?
[reply] 2.56

[ask] For COc1cccc(C(=O)CCn2c(CN3CCN(CC(=O)NC(C)C)CC3)nc3ccccc32)c1 [75 0010] , what is its reported log10 of LD50?
[reply] 3.08

[ask] Give its log10 of LD50 value. Item: CC(C)N(C(=O)CN1CCN(Cc2nc3ccccc3n2CCC(=O)c2ccccc2)CC1)C(C)C [74 0453]
[reply] 3.00

[ask] Reported log10 of LD50 for CCNC(=O)CN1CCN(Cc2nc3ccccc3n2CCC(=O)c2ccccc2)CC1 [74 0144] : what is it?
[reply] 2.49

[ask] // log10 of LD50 lookup, key: Cc1ccc(C(=O)CCn2c(CN3CCN(CC(=O)NC(C)C)CC3)nc3ccccc32)cc1 [75 0009]
[reply] 3.26

[ask] So what's the measured log10 of LD50 for this one? O=C(CCn1c(CN2CCN(CC(=O)N3CCOCC3)CC2)nc2ccccc21)c1ccccc1 [74 0160]
[reply] 3.23
